# AC50 per entry
target: Alpha-2A adrenergic receptor (Homo sapiens, UniProt P08913); type: functional, cell-based; further: assay procedure not described here
Sequence (P08913 whole entry): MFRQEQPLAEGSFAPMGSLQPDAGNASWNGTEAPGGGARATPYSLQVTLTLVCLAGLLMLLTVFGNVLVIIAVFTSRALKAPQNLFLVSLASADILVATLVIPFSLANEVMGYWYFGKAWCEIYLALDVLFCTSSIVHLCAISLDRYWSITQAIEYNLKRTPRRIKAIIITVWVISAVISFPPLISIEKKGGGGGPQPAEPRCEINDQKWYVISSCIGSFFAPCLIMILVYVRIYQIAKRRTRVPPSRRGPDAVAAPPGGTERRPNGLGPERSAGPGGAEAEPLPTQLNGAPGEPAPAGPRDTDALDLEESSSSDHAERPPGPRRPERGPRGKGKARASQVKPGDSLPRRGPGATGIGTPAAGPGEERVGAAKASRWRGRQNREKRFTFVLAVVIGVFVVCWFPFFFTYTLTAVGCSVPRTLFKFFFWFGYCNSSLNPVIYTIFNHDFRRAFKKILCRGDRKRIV

Reference set (10 entries):
CCC(C(=O)O)c1ccc(N2Cc3ccccc3C2=O)cc1 (stereo not given) [INDOBUFEN] :: > 30 µM
O=C(O)CCCCCCCC(=O)O [AZELAIC ACID] :: > 10 µM
C/C(O)=C(\C#N)C(=O)Nc1ccc(C(F)(F)F)cc1 [TERIFLUNOMIDE] :: > 30 µM
CN(C)CC/C=C1\c2ccccc2CSc2ccccc21 [DOTHIEPIN] :: 29 µM
CC(=O)OCC(=O)[C@@]12N=C(C)O[C@@H]1C[C@H]1[C@@H]3CCC4=CC(=O)C=C[C@]4(C)[C@H]3[C@@H](O)C[C@@]12C [DEFLAZACORT] :: > 30 µM
O=C(Cc1ccc(-c2ccccc2)cc1)Nc1ccccn1 [DIFENPIRAMIDE] :: > 30 µM
O=P1(NCCCl)OCCCN1CCCl (stereo not given) [IFOSFAMIDE] :: > 30 µM
Cc1cc(O)c(C(=O)N[C@@H](C(=O)N[C@@H]2C(=O)N3C(C(=O)O)=C(CSc4nnnn4C)CS[C@H]23)c2ccc(O)cc2)cn1 [CEFPIRAMIDE] :: > 30 µM
CN(C)CCC=C1c2ccccc2C(C)(C)c2ccccc21 :: 6.7 µM
COC1=C(OC)C(=O)C(C/C=C(\C)CC/C=C(\C)CC/C=C(\C)CC/C=C(\C)CC/C=C(\C)CC/C=C(\C)CC/C=C(\C)CC/C=C(\C)CC/C=C(\C)CCC=C(C)C)=C(C)C1=O [UBIDECARENONE] :: > 30 µM

Input: Would you please give the reported AC50 of CC(C[N+](C)(C)C)OC(N)=O (stereo not given) [BETHANECHOL] with Alpha-2A adrenergic receptor (Homo sapiens, UniProt P08913)?
Output: > 10 µM

Input: Would you please give the reported AC50 of CC(C)OC(=O)CCC/C=C\C[C@@H]1[C@@H](CC[C@@H](O)CCc2ccccc2)[C@H](O)C[C@@H]1O [LATANOPROST] with Alpha-2A adrenergic receptor (Homo sapiens, UniProt P08913)?
Output: > 30 µM

Input: Would you please give the reported AC50 of CC[C@@H]1C(=O)OC[C@@H]1Cc1cncn1C [PILOCARPINE] with Alpha-2A adrenergic receptor (Homo sapiens, UniProt P08913)?
Output: > 10 µM

Input: Would you please give the reported AC50 of Clc1ccc(C(c2ccccc2Cl)C(Cl)Cl)cc1 (stereo not given) [MITOTANE] with Alpha-2A adrenergic receptor (Homo sapiens, UniProt P08913)?
Output: > 10 µM

====

Each entry below carries its measured AC50, system: Sodium-dependent noradrenaline transporter (Homo sapiens). Further: assay procedure not described here.
Sequence (P23975 whole entry): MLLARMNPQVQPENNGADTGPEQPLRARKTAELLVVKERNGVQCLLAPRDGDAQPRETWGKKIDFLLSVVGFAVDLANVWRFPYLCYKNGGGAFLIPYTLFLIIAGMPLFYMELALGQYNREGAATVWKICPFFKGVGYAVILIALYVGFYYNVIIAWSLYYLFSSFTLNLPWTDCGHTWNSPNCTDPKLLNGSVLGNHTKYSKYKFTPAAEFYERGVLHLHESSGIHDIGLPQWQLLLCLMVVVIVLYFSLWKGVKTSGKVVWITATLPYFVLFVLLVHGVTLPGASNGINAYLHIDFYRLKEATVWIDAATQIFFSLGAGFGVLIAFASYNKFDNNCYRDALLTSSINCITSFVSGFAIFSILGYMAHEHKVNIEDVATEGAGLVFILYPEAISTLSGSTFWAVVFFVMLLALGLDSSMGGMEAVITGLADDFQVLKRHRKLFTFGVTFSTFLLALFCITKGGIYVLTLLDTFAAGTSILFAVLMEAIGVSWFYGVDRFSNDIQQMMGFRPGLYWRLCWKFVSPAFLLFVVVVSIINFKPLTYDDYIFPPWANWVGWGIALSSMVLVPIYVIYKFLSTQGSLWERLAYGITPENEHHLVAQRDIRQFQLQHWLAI

CC(=O)OCC(=O)[C@@]1(O)CC[C@H]2[C@@H]3CCC4=CC(=O)C=C[C@]4(C)[C@@]3(Cl)[C@@H](Cl)C[C@@]21C [DICHLORISONE ACETATE] :: > 30 µM
CCCC1O[C@@H]2C[C@H]3[C@@H]4CCC5=CC(=O)C=C[C@]5(C)[C@H]4[C@@H](O)C[C@]3(C)[C@]2(C(=O)CO)O1 (some centres undefined) [BUDESONIDE] :: > 30 µM
Clc1cc(Cl)c(OCC#CI)cc1Cl :: 5.12 µM
N=C1CCCN1Cc1[nH]c(=O)[nH]c(=O)c1Cl :: > 30 µM

Input: Give AC50 for CCOC(=O)/C=C1\SC(N2CCCCC2)C(=O)N1C (centres undefined)
Output: > 30 µM

Input: Give AC50 for CCN(CC)CCNc1ccc(CO)c2sc3ccccc3c(=O)c12
Output: 11.9 µM

Input: Give AC50 for COc1ccc2c(c1)N(C[C@H](C)CN(C)C)c1ccccc1S2
Output: > 30 µM

Input: Give AC50 for O=c1[nH]c(=O)n(C2CCCO2)cc1F (centres undefined)
Output: > 30 µM

Input: Give AC50 for O=C(Oc1ccc2c(c1)CCCN2C(=O)C(Cl)Cl)c1ccco1 [QUINFAMIDE]
Output: > 30 µM

Recorded values, source ChEMBL document CHEMBL5291721.
